Data provenance is PubChem BioAssay (NCI).

System: NCI-H460 lung
Experiment: NCI-60 one-dose screen, 48 h
Conditions: 10 µM unless noted
Description: Growth inhibition of the NCI-H460 human Non-Small Cell Lung tumor cell line is measured as a screen for anti-cancer activity. Cells are grown in 96 well plates and exposed to the test compound for 48 hours. Compounds are tested at a single concentration, which is 10^-5 M for most compounds. The reported endpoint is percent growth (GI% or GIPRCNT), where numbers from 0 - 100% represent growth inhibition, and numbers from -100% - 0 represent cell death. […]
Compounds without any hit were thinned out: in the full panel of roughly 83,000, 20% have a hit. Calls of active or inactive are those of the source. How the source made its calls: active means growth percent below 10; inactive means the rest.
Please state which outcome applies, choosing from active, inactive

Consider the following illustrative entries.
COc1ccc(/C=C2\COc3ccc(-c4ccccc4)cc3C2=O)c(OC)c1 = inactive
COc1cc(/C=N/O)nc(-c2ccccn2)c1 = active
Cn1cc(CC2CC(=O)N(c3ccccc3)C2=O)sc1=NC(=O)c1ccccc1 (stereo unspecified) = inactive
O=C1Nc2ccccc2/C1=C\c1c(-c2ccc(F)cc2)nc2ccccn12 = inactive
COc1ccc(-c2cnc3c(-c4cccc5cnccc45)cnn3c2)cc1 = inactive
CCN1C(=O)/C(=C/C(=O)OC)S/C1=N\NC(=O)c1cc2ccc1/C=C\c1ccc(cc1)/C=C\2 = inactive

# outcome recorded in this test, key = O=C1CC(=O)OC(c2ccc([N+](=O)[O-])cc2)O1 inactive

# outcome recorded in this test, key = Cc1c(C(=O)NCCC(=O)NO)sc2ncnc(Nc3ccc(F)c(Cl)c3)c12 inactive

# outcome recorded in this test, key = COc1cccc2c1c1nc3cc(C)c(C)cc3nc1n2CCN(C)C active

# outcome recorded in this test, key = Cn1c2ccccc2c2c3c(c4c5ccccc5n(C)c4c21)C(=O)OC3 inactive

# outcome recorded in this test, key = C=C1C(=O)O[C@H]2[C@H]1CC/C(CNS(=O)(=O)c1cccc3ccccc13)=C\CC[C@@]1(C)O[C@@H]21 inactive
